Species: Rattus norvegicus
experimentalDetails: DrugMatrix - Regimen: Daily Repeat
Type: toxicity, organism-based, Sprague-Dawley
Parameters: regimen Daily Repeat, gender Male, age 6-8 weeks
appliedConditions: in vivo, po, 0 mg/kg, 120 h, tissue Plasma, route oral GAVAGE, dose level Control, time 5 day, […]
readoutKind: ALKALINE PHOSPHATASE (u/L)

>>> resultnumber("COC1=CC(=O)C[C@@H](C)[C@]12Oc1c(Cl)c(OC)cc(OC)c1C2=O [GRISEOFULVIN]")
347.33
>>> resultnumber("C=CCN [ALLYLAMINE]")
603.33
>>> resultnumber("CN(C)CCCC1(c2ccc(F)cc2)OCc2cc(C#N)ccc21 (stereo not given) [CITALOPRAM]")
319.17
>>> resultnumber("CC1=C(/C=C/C(C)=C/C=C/C(C)=C\\C(=O)O)C(C)(C)CCC1 [ISOTRETINOIN]")
419
>>> resultnumber("CSc1ccc2c(c1)N(CCC1CCCCN1C)c1ccccc1S2 (stereo not given) [THIORIDAZINE]")
464.33
>>> resultnumber("Cn1cnc([N+](=O)[O-])c1Sc1ncnc2nc[nH]c12 [AZATHIOPRINE]")
452
>>> resultnumber("CC(=O)[C@H]1CC[C@H]2[C@@H]3CCC4=CC(=O)CC[C@]4(C)[C@H]3CC[C@]12C [PROGESTERONE]")
319.17
>>> resultnumber("CCCC[C@@H](CC)COC(=O)c1ccccc1C(=O)OC[C@@H](CC)CCCC [BIS(2-ETHYLHEXYL)PHTHALATE]")
492.67
>>> resultnumber("O=[N+]([O-])c1cc([As](=O)(O)O)ccc1O [ROXARSONE]")
318
>>> resultnumber("COc1ccc2c(c1)c(CC(=O)OCC(=O)O)c(C)n2C(=O)c1ccc(Cl)cc1 [ACEMETACIN]")
363.17
>>> resultnumber("Oc1c(Cl)cc(Cl)cc1Sc1cc(Cl)cc(Cl)c1O [BITHIONOL]")
402.5
>>> resultnumber("COCc1c(C(C)C)nc(C(C)C)c(/C=C/[C@@H](O)C[C@@H](O)CC(=O)O)c1-c1ccc(F)cc1 [CERIVASTATIN]")
414.17
>>> resultnumber("CC(C)(Oc1ccc(CCNC(=O)c2ccc(Cl)cc2)cc1)C(=O)O [BEZAFIBRATE]")
318
>>> resultnumber("CC(C)n1c(/C=C/C(O)CC(O)CC(=O)O)c(-c2ccc(F)cc2)c2ccccc21 (stereo not given) [FLUVASTATIN]")
402.5
>>> resultnumber("c1ccc2[nH]c(-c3cscn3)nc2c1 [THIABENDAZOLE]")
492.67

====

Organism: Rattus norvegicus
experimentalDetails: DrugMatrix - Regimen: Daily Repeat
Format: toxicity, organism-based, Sprague-Dawley
Parameters: regimen Daily Repeat, gender Male, age 6-8 weeks
appliedConditions: in vivo, po, 0 mg/kg, 120 h, tissue Blood, route oral GAVAGE, dose level Control, time 5 day, vehicle .5 % CMC
readoutKind: ABSOLUTE LYMPHOCYTE (CELLS/uL)

>>> resultnumber("Brc1ccccc1")
10076.67
>>> resultnumber("O=c1[nH]cc(F)c(=O)[nH]1")
9599.17
>>> resultnumber("CCc1ccc(C(=O)C(C)CN2CCCCC2)cc1 (centres undefined)")
12549.5
>>> resultnumber("CCC[C@@H]1C[C@@H](C(=O)N[C@@H]([C@H]2O[C@H](SC)[C@H](O)[C@@H](O)[C@H]2O)[C@@H](C)O)N(C)C1")
14943.67

====

Species: Rattus norvegicus
experimentalDetails: DrugMatrix - Regimen: Daily Repeat
Type: toxicity, organism-based, Sprague-Dawley
Parameters: regimen Daily Repeat, gender Male, age 6-8 weeks
appliedConditions: in vivo, po, 0 mg/kg, 72 h, tissue Blood, route oral GAVAGE, dose level Control, time 3 day, […]
Parameter: PLATELET COUNT. Scope: all listed entries.
readoutKind: PLATELET COUNT (x10E3/uL)

>>> resultnumber("CC(C)(Oc1ccc(CCNC(=O)c2ccc(Cl)cc2)cc1)C(=O)O [BEZAFIBRATE]")
1029
>>> resultnumber("Oc1c(Cl)cc(Cl)cc1Sc1cc(Cl)cc(Cl)c1O")
1211.33
>>> resultnumber("COc1ccc2c(c1)c(CC(=O)OCC(=O)O)c(C)n2C(=O)c1ccc(Cl)cc1")
1214.17
>>> resultnumber("CSc1ccc2c(c1)N(CCC1CCCCN1C)c1ccccc1S2 (stereo unspecified)")
1292
>>> resultnumber("CCCCCCCCCc1ccc(O)cc1")
1150.33
>>> resultnumber("COCc1c(C(C)C)nc(C(C)C)c(/C=C/[C@@H](O)C[C@@H](O)CC(=O)O)c1-c1ccc(F)cc1")
1150.33

====

Parameter: BLOOD UREA NITROGEN. Scope: all listed entries.
Species on record: Rattus norvegicus
experimentalDetails: DrugMatrix - Regimen: Daily Repeat
Type: toxicity, organism-based, Sprague-Dawley
Parameters: regimen Daily Repeat, gender Male, age 6-8 weeks
appliedConditions: in vivo, po, 0 mg/kg, 120 h, tissue Plasma, route oral GAVAGE, dose level Control, time 5 day, vehicle .5 % CMC
readoutKind: BLOOD UREA NITROGEN (mg/dL)

>>> resultnumber("CC(C)[C@H](N)C(=O)OCCOCn1cnc2c(=O)[nH]c(N)nc21")
18
>>> resultnumber("CCOC(=O)OC(C)OC1=C(C(=O)Nc2ccccn2)N(C)S(=O)(=O)c2ccccc21 (configuration not stated)")
14
>>> resultnumber("Brc1ccccc1")
14
>>> resultnumber("NCC(=O)O")
16.33
>>> resultnumber("CC1(C)[C@H]2CC[C@]1(C)C(=O)C2 [(-)-CAMPHOR]")
20
>>> resultnumber("CN1CCC[C@@H]1CCO[C@](C)(c1ccccc1)c1ccc(Cl)cc1")
17
>>> resultnumber("O=c1[nH]cc(F)c(=O)[nH]1")
17.83
>>> resultnumber("CC(/C=C1\\SC(=S)N(CC(=O)O)C1=O)=C\\c1ccccc1")
17
>>> resultnumber("O=C1CCc2cc(OCCCCc3nnnn3C3CCCCC3)ccc2N1")
14.17
>>> resultnumber("C[C@]12CCC(=O)C=C1CC[C@@H]1[C@@H]2C(=O)C[C@@]2(C)[C@H]1CC[C@]2(O)C(=O)CO")
16.67
>>> resultnumber("CCc1ccc(C(=O)C(C)CN2CCCCC2)cc1 (configuration not stated)")
18.17
>>> resultnumber("Cc1c(-c2ccccc2)oc2c(C(=O)OCCN3CCCCC3)cccc2c1=O [FLAVOXATE]")
17.67

====

Species on record: Rattus norvegicus
experimentalDetails: DrugMatrix - Regimen: Daily Repeat
Assay type: toxicity, organism-based, Sprague-Dawley
Set-up: regimen Daily Repeat, gender Male, age 6-8 weeks
appliedConditions: in vivo, iv, 0 mg/kg, 72 h, tissue Blood, dose level Control, time 3 day, vehicle 100 % SALINE
readoutKind: MEAN CORPUSCULAR HEMOGLOBIN CONCENTRATION (G/DL)

>>> resultnumber("NCC[C@H](O)C(=O)N[C@@H]1C[C@H](N)[C@@H](O[C@H]2O[C@H](CN)[C@@H](O)[C@H](O)[C@H]2O)[C@H](O)[C@H]1O[C@H]1O[C@H](CO)[C@@H](O)[C@H](N)[C@H]1O")
38.23
>>> resultnumber("CC1(C)S[C@@H]2[C@H](NC(=O)[C@H](NC(=O)N3CCNC3=O)c3ccccc3)C(=O)N2[C@H]1C(=O)O")
39.28
>>> resultnumber("CN(N=O)C(=O)N[C@@H](C=O)[C@@H](O)[C@H](O)[C@H](O)CO")
37.23
>>> resultnumber("CC[C@@]1(O)C(=O)OCc2c1cc1n(c2=O)Cc2cc3ccccc3nc2-1")
39.9

====

Species on record: Rattus norvegicus
experimentalDetails: DrugMatrix - Regimen: Daily Repeat
Type: toxicity, organism-based, Sprague-Dawley
Design: regimen Daily Repeat, gender Male, age 6-8 weeks
appliedConditions: in vivo, po, 0 mg/kg, 120 h, tissue Blood, route oral GAVAGE, dose level Control, time 5 day, vehicle .5 % CMC
One threshold, 40%, splits the recorded HEMATOCRIT values: lower ones are met, equal or higher ones are not met.

>>> qualitativelabel("CC[C@H]1OC(=O)[C@H](C)[C@@H](O[C@H]2C[C@@](C)(OC)[C@@H](O)[C@H](C)O2)[C@H](C)[C@@H](O[C@@H]2O[C@H](C)C[C@H](N(C)C)[C@H]2O)[C@](C)(O)C[C@@H](C)/C(=N\\OCOCCOC)[C@H](C)[C@@H](O)[C@]1(C)O")
"not met"
>>> qualitativelabel("CN1C(C(=O)Nc2ccccn2)=C(O)c2ccccc2S1(=O)=O")
"met"
>>> qualitativelabel("COc1c(C)c2c(c(O)c1C/C=C(\\C)CCC(=O)OCCN1CCOCC1)C(=O)OC2 [MYCOPHENOLATE MOFETIL]")
"met"
>>> qualitativelabel("CN1CCC[C@@H]1CCO[C@](C)(c1ccccc1)c1ccc(Cl)cc1")
"met"
>>> qualitativelabel("NCC(=O)O")
"met"
>>> qualitativelabel("Cc1c(-c2ccccc2)oc2c(C(=O)OCCN3CCCCC3)cccc2c1=O [FLAVOXATE]")
"met"
>>> qualitativelabel("CC(C)[C@H](N)C(=O)OCCOCn1cnc2c(=O)[nH]c(N)nc21")
"met"
>>> qualitativelabel("CCc1cccc2c3c([nH]c12)C(CC)(CC(=O)O)OCC3 (centres undefined)")
"not met"
>>> qualitativelabel("O=C1CCc2cc(OCCCCc3nnnn3C3CCCCC3)ccc2N1")
"not met"
>>> qualitativelabel("CCc1ccc(C(=O)C(C)CN2CCCCC2)cc1 (centres undefined)")
"met"
>>> qualitativelabel("COC(=O)c1ccc(O)cc1")
"met"
>>> qualitativelabel("CC(/C=C1\\SC(=S)N(CC(=O)O)C1=O)=C\\c1ccccc1")
"met"
>>> qualitativelabel("CCOC(=O)OC(C)OC1=C(C(=O)Nc2ccccn2)N(C)S(=O)(=O)c2ccccc21 (centres undefined)")
"met"
>>> qualitativelabel("O=c1cc(-c2ccccc2)oc2c1ccc1ccccc12")
"not met"
>>> qualitativelabel("C[C@]12CCC(=O)C=C1CC[C@@H]1[C@@H]2C(=O)C[C@@]2(C)[C@H]1CC[C@]2(O)C(=O)CO")
"not met"
>>> qualitativelabel("CCC[C@@H]1C[C@@H](C(=O)N[C@@H]([C@H]2O[C@H](SC)[C@H](O)[C@@H](O)[C@H]2O)[C@@H](C)O)N(C)C1")
"met"
>>> qualitativelabel("CC1(C)[C@H]2CC[C@]1(C)C(=O)C2 [(-)-CAMPHOR]")
"met"
>>> qualitativelabel("Brc1ccccc1")
"met"
>>> qualitativelabel("O=c1[nH]cc(F)c(=O)[nH]1")
"met"
